Entry source: patent US20250154283A1

pKd overview
Molecular target: T1, biotinylated human VWF cysteine knot (CK) domain construct (human, UniProt P04275 2724-2813, biotinylated in vitro (BirA) on the biotinylation tag; one N-glycan)
T1 construct: Expressed in HEK293 EBNA cells; disulfide-linked homodimer; also called human VWF CK; human VWF CK domain; not shown: in vitro biotinylation tag, HRV-3C site and 3 VWF residues before the CK domain
Test: SPR, scFv captured via anti-SV5, CK domain injected, pH 5.5, apparent Kd;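 note: scFvs from crude yeast supernatants captured on chip-bound anti-SV5 antibody, Kd computed as koff divided by kon, dimeric CK construct likely makes affinity appear higher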
Value format note: pKd is -log10 of concentration (mol/L); just state the number.

Prompt: Name the recorded pKd of the binder listed here: Lib8_P4_D4_scFv (scFv, VH-linker-VL; not shown: C-terminal 3xFLAG and SV5 tags) scFv: QVQLVQSGAEVKKPGASVKVSCKVSGDTLSNYAIHWVRQAPGKGLEWMGGINPNAGTTIYAQKFQGRVTMTEDTSTDTAYMELSSLKSEDTAVYYCARDSSSWCPVGYYYYYMDVWGKGTTVTVSSSGGSTITSYNVYYTKLSSSGTDIQMTQSPSSVSASVGDRVTITCRASQSIGDFLAWYQQKPGKAPKLLIYDASHLQTGVPSRFSGSGSGTDFTLTISSLQPEDFANYYCQQTSTIPPTFGGGTKVEIK
Response: 9.40

Prompt: Specify pKd for Lib6_P3_A4_scFv (scFv, VH-linker-VL; not shown: C-terminal 3xFLAG and SV5 tags) scFv: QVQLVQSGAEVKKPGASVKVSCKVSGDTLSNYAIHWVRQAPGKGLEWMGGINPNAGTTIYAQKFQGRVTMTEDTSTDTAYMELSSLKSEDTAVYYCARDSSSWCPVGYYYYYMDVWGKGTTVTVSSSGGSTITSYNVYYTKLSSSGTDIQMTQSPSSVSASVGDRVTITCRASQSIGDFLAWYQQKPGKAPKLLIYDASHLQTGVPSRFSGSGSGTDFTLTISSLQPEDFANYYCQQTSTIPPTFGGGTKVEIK and stop.
Response: 9.28
